# Tgt: T1, human PDL1 protein (human, UniProt Q9NZQ7 19-238, limits assumed)
# T1 construct: also called plate-captured PD-L1
# Test: titration ELISA, soluble His-tagged PD1 decoy on plate-coated human PD-L1, anti-His detection
Reported property: Affinity to PD-L1 (relative to WT PD1)

Below: 4 binders and their reported Affinity to PD-L1 (relative to WT PD1).
| Binder | Value reported |
| --- | --- |
| 6XB (receptor, PD1 decoy variant, bacterial, C-terminal 6xHis) MASDSPDRPWNPPTFSPALLVVTEGDNATFTCSFSNTSESFVLNWYRESPSNQDDRLAAFPEDRSQPGQDARFRVTQLPNGRDFHMSVVRARRNDSGTYICGAISLAPKWKIKESLRAELRVTERRALEHHHHHH | 1.3 fold relative to WT PD1 |
| K_78R (receptor, PD1 decoy variant, bacterial, C-terminal 6xHis) MASDSPDRPWNPPTFSPALLVVTEGDNATFTCSFSNTSESFVLNWYRMSPSNQTDRLAAFPEDRSQPGQDARFRVTQLPNGRDFHMSVVRARRNDSGTYLCGAISLAPKAQIKESLRAELRVTERRALEHHHHHH | 1.4 fold relative to WT PD1 |
| Core_W (receptor, PD1 decoy variant, bacterial, C-terminal 6xHis) MASDSPDRPWNPPTFSPALLVVTEGDNATFTCSFSNTSESFVLNWYRESPSNQDDRLAAFPEDRSQPGQDARFRVTQLPNGRDFHMSVVRARRNDSGTYECGAISLAPKWKIKESLRAELRVTERRALEHHHHHH | 1020 fold relative to WT PD1 |
| L122E (receptor, PD1 decoy variant, bacterial, C-terminal 6xHis) MASDSPDRPWNPPTFSPALLVVTEGDNATFTCSFSNTSESFVLNWYRMSPSNQTDKLAAFPEDRSQPGQDARFRVTQLPNGRDFHMSVVRARRNDSGTYECGAISLAPKAQIKESLRAELRVTERRALEHHHHHH | 3 fold relative to WT PD1 |

Proceeding to the next binder to report its Affinity to PD-L1 (relative to WT PD1).
Entry M70E (receptor, PD1 decoy variant, bacterial, C-terminal 6xHis) MASDSPDRPWNPPTFSPALLVVTEGDNATFTCSFSNTSESFVLNWYRESPSNQTDKLAAFPEDRSQPGQDARFRVTQLPNGRDFHMSVVRARRNDSGTYLCGAISLAPKAQIKESLRAELRVTERRALEHHHHHH — recorded Affinity to PD-L1 (relative to WT PD1) = 5.2 fold relative to WT PD1
